Cited source for all entries: patent US20250304560A1

Biological target: NLRP3 inflammasome (Homo sapiens)
Sequence (Q96P20 whole entry): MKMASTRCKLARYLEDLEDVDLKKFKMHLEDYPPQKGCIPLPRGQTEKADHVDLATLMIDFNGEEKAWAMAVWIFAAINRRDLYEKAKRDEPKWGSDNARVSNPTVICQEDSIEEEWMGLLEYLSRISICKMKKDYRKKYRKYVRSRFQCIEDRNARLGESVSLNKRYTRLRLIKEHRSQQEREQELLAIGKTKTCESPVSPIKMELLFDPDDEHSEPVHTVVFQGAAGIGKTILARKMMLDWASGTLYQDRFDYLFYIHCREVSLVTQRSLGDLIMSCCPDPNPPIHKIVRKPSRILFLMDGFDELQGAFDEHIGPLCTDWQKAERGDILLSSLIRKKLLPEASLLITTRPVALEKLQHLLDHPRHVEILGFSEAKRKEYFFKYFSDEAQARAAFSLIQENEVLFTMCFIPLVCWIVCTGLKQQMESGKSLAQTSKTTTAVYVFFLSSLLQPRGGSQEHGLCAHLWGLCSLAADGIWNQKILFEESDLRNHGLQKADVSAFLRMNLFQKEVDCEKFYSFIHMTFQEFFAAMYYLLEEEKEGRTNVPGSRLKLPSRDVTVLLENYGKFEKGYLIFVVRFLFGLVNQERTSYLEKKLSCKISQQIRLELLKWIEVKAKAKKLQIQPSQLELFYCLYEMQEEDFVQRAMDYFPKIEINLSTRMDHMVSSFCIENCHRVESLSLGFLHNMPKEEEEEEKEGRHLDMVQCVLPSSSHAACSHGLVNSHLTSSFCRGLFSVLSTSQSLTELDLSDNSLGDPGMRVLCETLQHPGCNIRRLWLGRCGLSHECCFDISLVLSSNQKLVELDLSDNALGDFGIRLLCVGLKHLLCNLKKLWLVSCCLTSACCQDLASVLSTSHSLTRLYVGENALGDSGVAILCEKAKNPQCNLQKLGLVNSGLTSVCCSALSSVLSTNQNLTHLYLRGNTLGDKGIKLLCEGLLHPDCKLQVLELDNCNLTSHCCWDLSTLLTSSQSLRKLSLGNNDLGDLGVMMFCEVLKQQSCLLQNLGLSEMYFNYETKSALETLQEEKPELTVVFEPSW
Experiment: NLRP3 inflammasome activation in THP1 macrophages, IL-1β AlphaLISA
pIC50: −log10 of the molar value.
ENDPOINT LABEL: pIC50

State pIC50 on NLRP3 inflammasome (Homo sapiens). Entry: `Cc1cc(O[C@@H]2CCCN(C)C2)nnc1-c1ccc(C(F)(F)F)cc1O` < 6.00

State pIC50 on NLRP3 inflammasome (Homo sapiens). Entry: `Cc1cc(NC[C@@H]2CCC(F)(F)C2)nnc1-c1ccccc1O` < 6.00

State pIC50 on NLRP3 inflammasome (Homo sapiens). Entry: `Cc1cc(N(C)[C@@H]2CCCN(C)C2)nnc1-c1ccc(C2CC2)cc1O` > 9.00

State pIC50 on NLRP3 inflammasome (Homo sapiens). Entry: `Cc1cc(N2CCC[C@@H](N(C)C)C2)nnc1-c1ccc(C#N)cc1O` < 6.00

State pIC50 on NLRP3 inflammasome (Homo sapiens). Entry: `Cc1cc(NC[C@@H]2COCCO2)nnc1-c1ccccc1O` < 6.00
